Tested on: E. coli BW25113
procedure_text: Minimum Inhibitory Concentration (MIC) determination, E. coli BW25113
Format: cell-based
Parameters: unit not given here
assay_setup: LB broth, 5×10^5 CFU/ml, 37° C., 18 hours, scored by eye
Method: MICs were determined by performing two-fold serial dilutions of peptides in LB broth to a final volume of 0.1 ml in round-bottom 96-well assay plates (Corning Life Sciences No 3788). Peptides were initially resuspended in 100% DMSO to 10 mM and subsequently diluted in LB medium to the appropriate concentration. […] Plates were scored by eye, and the lowest compound concentration preventing visible growth was determined to be the MIC.
Bridge positions count the residues as written; N and C are the ends. Square brackets hold non-standard residues; d marks the D form. Peptide text beside a SMILES is read from it. Gly(Nα-CH2CH2CONH2) = NC(=O)CCNCC(=O)O; 1Nal = N[C@@H](Cc1cccc2ccccc12)C(=O)O; His(π-Me) = Cn1cncc1C[C@H](N)C(=O)O; NMeY = CN[C@@H](Cc1ccc(O)cc1)C(=O)O; Abu = CC[C@H](N)C(=O)O
reported_endpoint: MIC E. coli BW25113 WUXI::MIC
Form: value (number only, do not type unit).

Q: Name the recorded MIC E. coli BW25113 WUXI::MIC for CC[C@@H]1NC(=O)[C@H](Cc2ccccc2)NC(=O)CSC[C@@H](C(=O)NCC(N)=O)NC(=O)[C@H](Cc2cncn2C)NC(=O)[C@H](CCCNC(=N)N)NC(=O)[C@H](Cc2c[nH]cn2)NC(=O)[C@H](Cc2ccc(O)cc2)N(C)C(=O)[C@H](CCCNC(=N)N)NC(=O)[C@H](CO)NC(=O)CN(CCC(N)=O)C(=O)[C@H](Cc2c[nH]cn2)NC(=O)[C@H](Cc2cccc3ccccc23)NC1=O [Compound 30] ({CH2CO}-F[Abu][1Nal]H[Gly(Nα-CH2CH2CONH2)]SR[NMeY]HR[His(π-Me)]CG-NH2; thioether N-12) .
Result: 50
